System: Mus musculus
method: In vivo dose(po) inhibiting systemic infections caused by Staphylococcus aureus NCTC 10649 in mice.
Type: functional
reported.endpoint: ED50 (mg/kg)
Note: unit mg/kg is implicit; provide only the numeric part.

| molecule | assay.system | ED50 [mg/kg] |
| --- | --- | --- |
| NC1CCN(c2nc3c(cc2F)c(=O)c(C(=O)O)cn3-c2ccc(F)cc2F)C1 (stereo not given) | Mus musculus | 1.4 |
| O=C(O)c1cn(-c2ccc(F)cc2F)c2nc(N3CCNCC3)c(F)cc2c1=O | Mus musculus | 2.4 |
| Cl.O=C(O)c1cn(-c2ccc(F)cc2)c2cc(N3CCNCC3)c(F)cc2c1=O [SARAFLOXACIN HYDROCHLORIDE] | Mus musculus | 6.5 |
| O=C(O)c1cn(-c2ccc(F)cc2)c2nc(N3CCNCC3)c(F)cc2c1=O | Mus musculus | 7.5 |

Please find the next molecule below.
Exercise: Requested field: ED50. Item: NC1CCN(c2nc3c(cc2F)c(=O)c(C(=O)O)cn3-c2ccc(F)cc2)C1 (stereo not given)
Solution: 1.6

---

Test system: Pseudomonas aeruginosa
method: In vitro antibacterial activity against Pseudomonas aeruginosa K799/WT
Assay type: functional
reported.endpoint: MIC (µg/mL)
Note: unit µg/mL is implicit; provide only the numeric part.

Worked set:
| compound | MIC [µg/mL] |
| --- | --- |
| O=C(O)c1cn(-c2ccc(F)cc2)c2nc(N3CCC(O)C3)c(F)cc2c1=O (centres undefined) | 3.1 |
| O=C(O)c1cn(C2CC2)c2cc(N3CCNCC3)c(F)cc2c1=O | 0.1 |
| CC1CN(c2nc3c(cc2F)c(=O)c(C(=O)O)cn3-c2ccc(F)cc2F)CCN1 (centres undefined) | 1.56 |

Please find the next compound below.
Exercise: Enter reported MIC observed with Pseudomonas aeruginosa for CCn1cc(C(=O)O)c(=O)c2cc(F)c(N3CCNCC3)cc21
Solution: 0.39

---

Tested on: Mus musculus
method: In vivo dose(sc) inhibiting systemic infections caused by Pseudomonas aeruginosa 5007 in mice.
Format: functional
Classify: Criterion met when ED50 is strictly less than 7 mg/kg; Criterion not met when ED50 is not.

| compound | discrete.label |
| --- | --- |
| O=C(O)c1cn(-c2ccc(F)cc2F)c2nc(N3CCNCC3)c(F)cc2c1=O | Criterion met |
| NC1CCN(c2nc3c(cc2F)c(=O)c(C(=O)O)cn3-c2ccc(F)cc2F)C1 (stereo not given) | Criterion met |
| Cl.O=C(O)c1cn(-c2ccc(F)cc2)c2cc(N3CCNCC3)c(F)cc2c1=O [SARAFLOXACIN HYDROCHLORIDE] | Criterion met |

As a next step, examine the compound that follows.
Exercise: Strictly below 7 mg/kg: is that where ED50 of NC1CCN(c2nc3c(cc2F)c(=O)c(C(=O)O)cn3-c2ccc(F)cc2)C1 (stereo not given) sits?
Solution: Criterion not met

---

MIC: recorded values
Test system: Enterococcus faecium
method: In vitro antibacterial activity against Streptococcus faecium ATCC 8043
Assay type: functional
Note: unit µg/mL is implicit; provide only the numeric part.

Worked set:
| compound | MIC, µg/mL |
| --- | --- |
| O=C(O)c1cn(-c2ccc(F)cc2F)c2nc(N3CCNCC3)c(F)cc2c1=O | 0.78 |
| O=C(O)c1cn(-c2ccccc2)c2nc(N3CCNCC3)c(F)cc2c1=O | 50 |
| CN1CCN(c2cc3c(cc2F)c(=O)c(C(=O)O)cn3-c2ccc(F)cc2)CC1.Cl [DIFLOXACIN HYDROCHLORIDE] | 1.56 |

Exercise: Requested field: MIC. Item: CC1CN(c2nc3c(cc2F)c(=O)c(C(=O)O)cn3-c2ccc(F)cc2F)CCN1 (centres undefined)
Solution: 3.1
